# System: Alopecurus myosuroides
# PROCEDURE DETAILS: Herbicidal post-emergence action
# Type: in vivo
# CONDITION DESCRIPTION: post-emergence method, 80 g/ha
RECORDED METRIC: herbicidal effect against ALOMY (Alopecurus myosuroides) (%)
Could you give me the number in %? Just the number is fine.

Use these answered entries as a reference point.
COMPOUND	UNIT	REPORTED RESULT
CCOC(=O)OC1=C(c2c(CC)cc(C)cc2CC)C(=O)C2CC(=NOCC3CC3)CC12 (centres unmarked)	%	100
CCc1cc(C)cc(CC)c1C1=C(OC(=O)C(C)(C)CC)C2CC3(CC2C1=O)OCCCO3 (centres unmarked)	%	20

Consider the additional compound presented here.
Data point: CCc1cc(C)cc(CC)c1C1=C(OC(=O)OC)C2CC3(CC2C1=O)OCCCO3 (centres unmarked) ; herbicidal effect against ALOMY (Alopecurus myosuroides) = 100
